- Test system: K4 kissing-loop RNA reporter;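 also: bound reporter read as fluorescence of individual clusters on recovered sequencing chips by microscopy, with normalized cluster intensities fitted with a binding model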
- Test: apparent KD of K4 kissing-loop reporter; higher = weaker reporter binding
- Condition: Eterna round: R107; input ligand: arginine 13.2 mM
Rule: apparent KD of K4 kissing-loop reporter of 300 nM or more gives Met; anything lower gives Not met.

In: In plain terms: is recorded apparent KD of K4 kissing-loop reporter at least 300 nM for UGAUAGGACAGAAGGAGCGGGAGUGAUGUUCCCAAUAAAAGGUCUAGCAAAGCUAGACCCUCCCAGGUAGGUCGCUGUCCUAUCU [ArgBX 2 #Palindromic #SwitchBubble #StaticStem] ?
Out: Not met

In: In plain terms: is recorded apparent KD of K4 kissing-loop reporter at least 300 nM for UGGAUAUAGUGAUGUUAUAUAGAGAUGGAUACCAGCGAAGAGAAUUGCCCUUGGCAGCCGAAAGCAGUAUCAUUAGAGAAGAAUG [#19 K4 Theophylline A Exclusion] ?
Out: Not met

In: In plain terms: is recorded apparent KD of K4 kissing-loop reporter at least 300 nM for AGGCACGAGCAAGGAUAUCGAGUAGAGUGAUGUUCUGCCUGGGUUGGCUCGAAAGAGCCUUCUCAGCGAGAAGGUGCUCGUGCCU [#2 Same State - FMN A Attempt #21 (HarryS)] ?
Out: Met

In: In plain terms: is recorded apparent KD of K4 kissing-loop reporter at least 300 nM for AAGUCAUAUAGAAGGAGCGUGUUUUAUAAUUUAUUUUCAUGAUCGAGUGAUGUUCGAUAUACACAGGUAGGUCGCUGUAUAAUAA [hbob_SS_Arginine_B_2t140] ?
Out: Not met

In: In plain terms: is recorded apparent KD of K4 kissing-loop reporter at least 300 nM for AAAUUUAAUAUAUUUAAUUAAUUAAGUGAUACCAGACAUUAAUAAGUCCCUUGGCAGCGCAAUGCAGUGAUGUUGCUUAUAAUAA [#18 K4 Theophylline A Same State] ?
Out: Not met

In: In plain terms: is recorded apparent KD of K4 kissing-loop reporter at least 300 nM for UUAAAAUAUAUAAAUAAUAAGGGAAUUGAUACCAGACAGAAUUCUGUCCCUUGGCAGCAGUGAUGUUGUUGCAAUUUAAAUAAUU [AK1 Exc Theophylline A] ?
Out: Not met

In: In plain terms: is recorded apparent KD of K4 kissing-loop reporter at least 300 nM for AAAUAAUAAAUGCAGCCAGUGAUGUUGGAAGGAGCGUGCGAAAGCACAGGUAGGUCGCCAACCAAAGCUGGAAACAGCAACUGCA [#SwitchBubble 3 #K4Early] ?
Out: Not met

In: In plain terms: is recorded apparent KD of K4 kissing-loop reporter at least 300 nM for AUGCUUCAGUAAGGAUAUGGAGGCAGAGUGAAGAUUGUCGUGUAACCGAGUUAAGUGAUGUUUGAUCCAGAAGGUACAUGCGUGU [theeternabot_exclusion_KL_FMN_B_15] ?
Out: Met

In: In plain terms: is recorded apparent KD of K4 kissing-loop reporter at least 300 nM for GUAUCGCUAGGAGGAUAUUUCAAAUAACCAAUAAAUGGUUAUACGGAGUGAUGUUCCGAUUUACGGAAAGAAGGCCUAGUGAUAC [FMN B 5] ?
Out: Not met

In: In plain terms: is recorded apparent KD of K4 kissing-loop reporter at least 300 nM for AAGGUGAUCCUCGAUACCAGCUCAAAAUGAGUGAUGUUCAUGAAAGCCUGGAAACAGGCGAGCCCUUGGCAGCGAGUUACAUCAA [KL-SSTheoB8] ?
Out: Not met

In: In plain terms: is recorded apparent KD of K4 kissing-loop reporter at least 300 nM for UGGAGUUGACGAAAAGUCAACUCCUGAGAUACCAGUGACGAAAGUCACCCUUGGCAGCUCACUGCCAGUGAUGUUGGUUUAUAAA [#OpenEnded 2] ?
Out: Not met
